# testDetails: growth inhibitors of H69AR lung tumor, primary screen, human, duplicate replicates (AID 580);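 note: 100% = mean luminescence of untreated wells and 0% = no signal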
# conditionSet: H69AR lung tumor cells viability, ATP luminescence, 72 h; at 10 µM
Activity calls are given as the source filed them.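 Rule for the calls: active = viability at or under a set limit in both replicates, limit being median viability minus 3 SD (cut at about 48% in these data, passing the limit was not always enough); inconclusive = at or under the limit in just one replicate; inactive = at or above the limit in both replicates.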
Result category, one only: 1 for active, 0 for inactive

Study these solved cases before continuing.
[ask] So what was the verdict on "COc1cccc(-c2csc3nnc(SCC(=O)c4ccc(NC(C)=O)cc4)n23)c1" in this test?
[reply] 0

[ask] What call does the record list for "CCOC(=O)C1CCN(C(=O)COc2ccc(Cl)cc2Cl)CC1" ?
[reply] 0

[ask] Test call for this molecule, please: "CCCN(Cc1cc2ccc(C)cc2[nH]c1=O)C(=O)c1cccnc1"
[reply] 0

[ask] In this assay, the call recorded for "O=C(Cc1c(F)cccc1Cl)Nc1ccncc1" was what?
[reply] 0

[ask] Please state the recorded outcome for this molecule: "O=c1[nH]c(=O)n(C2CCCCCC2)c(O)c1C=NCc1ccc(F)cc1"
[reply] 0

[ask] How was "C=CCn1c(Cc2cccs2)nnc1SCC(=O)Nc1ccc(OC)c(OC)c1" classified in this test?
[reply] 0

Next:
[ask] Recorded call for CC1=C(C#N)C(c2ccoc2)C(C(=O)OCc2ccccc2)=C(N)S1 (centres undefined) ?
[reply] 0

[ask] Hi team, can someone confirm the assay call for "Cc1oc(-c2ccccc2)cc1C(N)=O" ?
[reply] 0

[ask] Would you mind telling me which call this test gave "Cn1c2ccc(F)cc2c2ncn(CCN3CCOCC3)c(=O)c21" ?
[reply] 0

[ask] Hey, what did the test say about "Cc1c(Br)c(C(F)(F)F)nn1CC(=O)NCCN1CCOCC1" ?
[reply] 0

[ask] Entry "CCOC(=O)c1cc2cc(F)ccc2nc1C" : call = ?
[reply] 0

[ask] Which outcome did this test record for the molecule "Cc1cc(NS(=O)(=O)c2ccc(Nc3nc(-c4sc(N)nc4C)cs3)cc2)no1" ?
[reply] 0

[ask] Per the assay record, what outcome was assigned to "CCOC(=O)CSc1nc2cc(C(=O)NCc3ccco3)ccc2c(=O)n1-c1ccc(F)cc1" ?
[reply] 0

[ask] What outcome does the record of this test show for C=CCN1C(=O)C2(C(C#N)=C(N)Oc3n[nH]c(CCC)c32)c2ccccc21 (centres undefined) ?
[reply] 0

[ask] Recorded call for COc1ccc(NC2c3ncccc3C(=O)N2Cc2ccccc2)c(OC)c1 (centres undefined) ?
[reply] 0

[ask] Which outcome was assigned to "CCCCOc1ccc(-c2nnn(CC(=O)Nc3ncc(CC(=O)OCC)s3)n2)cc1" in this test?
[reply] 0

[ask] Given "CCOC(=O)c1c(C)[nH]c(C(=O)Cn2c(=O)oc3ccccc32)c1C" , state the outcome it received in this test.
[reply] 0

[ask] Record lookup: outcome of this test for O=C1NC(Cc2c[nH]c3ccccc23)C(=O)N1CCOc1ccccc1 (centres undefined) ?
[reply] 0
